system_tested: rat liver COMT (Rattus norvegicus)
Construct: the organs were immediately removed and homogenised in 5 mM phosphate buffer of pH 7.8; from tissue; host or cells: rat liver homogenate (Wistar rats, dosed orally; ex vivo activity)
Sequence (P22734 1-264): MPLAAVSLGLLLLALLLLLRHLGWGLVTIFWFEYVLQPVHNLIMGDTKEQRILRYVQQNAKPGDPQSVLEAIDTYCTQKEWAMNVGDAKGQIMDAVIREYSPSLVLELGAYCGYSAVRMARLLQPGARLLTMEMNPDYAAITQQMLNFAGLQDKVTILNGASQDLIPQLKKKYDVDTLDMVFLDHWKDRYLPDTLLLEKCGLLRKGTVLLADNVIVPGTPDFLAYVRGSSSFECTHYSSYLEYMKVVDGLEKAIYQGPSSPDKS
assay_summary: Rat liver COMT activity after oral administration of test compounds
Type: in vivo
test_settings: 3 mg/kg oral, 6 h after administration
# if value of Rat Liver COMT activity (% control) reaches 40 % control, tag True; if it stays below, tag False

> print(dat)
                                   molecule  label
1  O=[N+]([O-])c1cc(-c2nc(-c3c[n+]([O-])ccc3C(F)(F)F)no2)cc(O)c1O [Compound 18]   True
2  Cc1ccc(C(=O)c2cc(O)c(O)c([N+](=O)[O-])c2)cc1 [Tolcapone, reference compound]   True
3  Cc1c(Cl)c(C)[n+]([O-])c(Br)c1-c1noc(-c2cc(O)c(O)c([N+](=O)[O-])c2)n1 [Compound 47]  False
4  Cc1c(C)c(C)[n+]([O-])c(Cl)c1-c1noc(-c2cc(O)c(O)c([N+](=O)[O-])c2)n1 [Compound 41]  False
5  O=[N+]([O-])c1cc(-c2nc(-c3ccc[n+]([O-])c3C(F)(F)F)no2)cc(O)c1O [Compound 42]  False
6  Cc1cc(C(F)(F)F)c(-c2noc(-c3cc(O)c(O)c([N+](=O)[O-])c3)n2)c[n+]1[O-] [Compound 30]   True
7  O=[N+]([O-])c1cc(-c2nc(Cc3ccc(C(F)(F)F)[n+]([O-])c3)no2)cc(O)c1O [Compound 43]   True
